For each record, write down the corresponding MIC Enterococcus faecalis (ATCC 29212).
System: Enterococcus sp.
Experiment: in vitro antibacterial evaluation, MIC by broth dilution
Assay type: cell-based
Conditions: Enterococcus faecalis (ATCC 29212); broth dilution, 18 hours at 35° C.
Source text: Methods for in vitro Antibacterial Evaluation (Table 1) […]
Numbered stars: 1 amine (or outer) side, 2 acyl side, 3 side chain; on linkers, the order of the positions; unused ones are H or OH. Square brackets hold non-standard residues; d marks the D form. Peptide text beside a SMILES is read from it. ξ: configuration not given here. X1 = N=C1NCC(C(O)C(N[*:1])C(=O)[*:2])N1C1OC(CO)C(O)C(O)C1O; ξEnduracididine(βξ-OH,4'ξ) = N=C1NCC(C(O)C(N)C(=O)O)N1; ξCha(3ξ-Me) = CC(C1CCCCC1)C(N)C(=O)O; Cha = N[CH](CC1CCCCC1)C(=O)O

Query: Param readout= MIC Enterococcus faecalis (ATCC 29212); system= Enterococcus sp.; entry= COc1cc(OC)cc(C2OC3C(OC4C(CO)OC(Oc5ccc(CC6NC(=O)C(C(C)c7ccccc7)NC(=O)CNC(=O)C(CO)NC(=O)C(C(O)C7CNC(=N)N7C7OC(CO)C(O)C(O)C7O)NC(=O)C(C(O)C7CNC(=N)N7)NC6=O)cc5)C(O)C4O)OC(CO)C(O)C3O2)c1 (stereo not shown) [Example 150a] ; returns value.
Result: >64 µg/mL

Query: Input CC(c1ccccc1)C1NC(=O)CNC(=O)C(CO)NC(=O)C(C(O)C2CNC(=N)N2C2OC(CO)C(O)C(O)C2O)NC(=O)C(C(O)C2CNC(=N)N2)NC(=O)C(Cc2ccc(OC3OC(CO)C(OC4OC5COC(c6cccs6)OC5C(O)C4O)C(O)C3O)cc2)NC1=O (stereo not shown) [Example 132]
Result: 8 µg/mL

Query: Input CC(C1CCCCC1)C1NC(=O)CNC(=O)C(CO)NC(=O)C(C(O)C2CNC(=N)N2C2OC(CO)C(O)C(O)C2O)NC(=O)C(C(O)C2CNC(=N)N2)NC(=O)C(CC2CCCCC2)NC1=O (stereo not drawn) [Example 53] (cyclo(G[ξCha(3ξ-Me)][Cha][ξEnduracididine(βξ-OH,4'ξ)][X1]S); configuration not given here)
Result: 8 µg/mL

Query: Input CC(C)CC(=O)OC1C(OC2C(CO)OC(Oc3ccc(CC4NC(=O)C(C(C)c5ccc(F)cc5)NC(=O)CNC(=O)C(CO)NC(=O)C(C(O)C5CNC(=N)N5C5OC(CO)C(O)C(O)C5O)NC(=O)C(C(O)C5CNC(=N)N5)NC4=O)cc3)C(O)C2O)OC(CO)C(O)C1O (stereo not shown) [Example 261b]
Result: >64 µg/mL

Query: Input CC(c1ccccc1)C1NC(=O)CNC(=O)C(CO)NC(=O)C(C(O)C2CNC(=N)N2C2OC(CO)C(O)C(O)C2O)NC(=O)C(C(O)C2CNC(=N)N2)NC(=O)C(Cc2ccc(OC3OC(CO)C(OC4OC5COC(C6CC=CCC6)OC5C(O)C4O)C(O)C3O)cc2)NC1=O (stereo not shown) [Example 115]
Result: 2 µg/mL

Query: Input CC(c1ccccc1)C1NC(=O)CNC(=O)C(CO)NC(=O)C(C(O)C2CNC(=N)N2C2OC(CO)C(O)C(O)C2O)NC(=O)C(C(O)C2CNC(=N)N2)NC(=O)C(Cc2ccc(OC3OC(CO)C(OC4OC5COC(CC67CC8CC(CC(C8)C6)C7)OC5C(O)C4O)C(O)C3O)cc2)NC1=O (stereo not shown) [Example 129]
Result: 2 µg/mL

Query: Input CCCCCCC(=O)OCC1OC(Oc2ccc(CC3NC(=O)C(C(C)c4ccccc4)NC(=O)CNC(=O)C(CO)NC(=O)C(C(O)C4CNC(=N)N4C4OC(CO)C(O)C(O)C4O)NC(=O)C(C(O)C4CNC(=N)N4)NC3=O)cc2)C(O)C(O)C1OC1OC(CO)C(O)C(O)C1O (stereo not shown) [Example 97a]
Result: 8 µg/mL
